Recorded values, source ChEMBL document CHEMBL1833803.

- Assay Protocol: Metabolic stability in rat hepatocytes assessed as half life
- Format: ADME, cell-based, Liver, Hepatocyte
Measurement Kind: half-life (min)
Write down the numeric answer in min and omit the unit.

C[C@H](Nc1ncc(C(N)=O)c2[nH]c3cc(-c4cnn(C)c4)ccc3c12)C(C)(C)C : 15

Next compound, half-life to be filled in.
half-life for C[C@H](Nc1ncc(C(N)=O)c2[nH]c3cc(-c4cnn(C)c4)ccc3c12)C1CC1 is 61

---

- Measured Target: Tyrosine-protein kinase JAK2 (Homo sapiens, UniProt O60674, V617F)
- Sequence (O60674 whole entry V617F): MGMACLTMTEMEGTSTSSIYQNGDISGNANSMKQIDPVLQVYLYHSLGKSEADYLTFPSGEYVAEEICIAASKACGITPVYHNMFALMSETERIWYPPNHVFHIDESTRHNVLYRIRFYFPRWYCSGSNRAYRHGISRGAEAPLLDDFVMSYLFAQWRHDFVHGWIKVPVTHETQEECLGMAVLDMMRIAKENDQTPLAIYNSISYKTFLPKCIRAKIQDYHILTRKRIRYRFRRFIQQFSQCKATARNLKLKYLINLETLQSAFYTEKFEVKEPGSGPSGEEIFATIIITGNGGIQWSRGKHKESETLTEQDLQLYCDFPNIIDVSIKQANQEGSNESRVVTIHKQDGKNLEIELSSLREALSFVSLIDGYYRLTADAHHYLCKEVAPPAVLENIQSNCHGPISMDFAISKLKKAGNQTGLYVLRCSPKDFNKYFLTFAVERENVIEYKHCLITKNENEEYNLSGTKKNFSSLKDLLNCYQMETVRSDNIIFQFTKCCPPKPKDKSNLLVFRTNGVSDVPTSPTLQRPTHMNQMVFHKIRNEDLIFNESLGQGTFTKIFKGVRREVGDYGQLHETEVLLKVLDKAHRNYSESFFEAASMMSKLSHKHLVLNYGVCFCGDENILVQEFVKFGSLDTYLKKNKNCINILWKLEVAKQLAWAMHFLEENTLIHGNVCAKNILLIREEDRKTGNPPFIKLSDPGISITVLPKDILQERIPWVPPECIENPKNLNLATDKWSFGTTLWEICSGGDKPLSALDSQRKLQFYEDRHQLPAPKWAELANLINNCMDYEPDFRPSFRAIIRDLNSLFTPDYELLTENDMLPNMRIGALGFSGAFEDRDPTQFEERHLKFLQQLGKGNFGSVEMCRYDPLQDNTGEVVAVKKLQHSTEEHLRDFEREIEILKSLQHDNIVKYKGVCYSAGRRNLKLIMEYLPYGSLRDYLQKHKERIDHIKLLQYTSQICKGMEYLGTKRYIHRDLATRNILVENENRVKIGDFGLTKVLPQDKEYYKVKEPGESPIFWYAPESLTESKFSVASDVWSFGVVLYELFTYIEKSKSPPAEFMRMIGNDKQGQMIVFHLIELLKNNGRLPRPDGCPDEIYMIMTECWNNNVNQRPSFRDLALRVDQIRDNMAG
- Assay Protocol: Inhibition of JAK2 V617F mutant
Measurement Kind: IC50 (nM)
Write down the numeric answer in nM and omit the unit.

The molecule NC(=O)c1cnc(N[C@H](C2CC2)C(F)(F)F)c2c1[nH]c1cc(-c3cnc(N)nc3)ccc12 on Tyrosine-protein kinase JAK2 (Homo sapiens, UniProt O60674, V617F): IC50 was 0.4

---

- Assay Protocol: Volume of distribution at steady state in dog at 0.5 mg/kg, iv
- Type: ADME, organism-based, Canis lupus familiaris
- Design: dose 0.5 mg/kg, route intravenous
- Details: in vivo, read-out: Vdss
Measurement Kind: Vd

Vd for NC(=O)c1cnc(N[C@H](C2CC2)C(F)(F)F)c2c1[nH]c1cc(-c3cnc(N)nc3)ccc12 is 6.1 L/kg

---

Items are presented alongside their recorded pIC50.
- Measured Target: Tyrosine-protein kinase JAK3 (Homo sapiens, UniProt P52333)
- Sequence (P52333 whole entry): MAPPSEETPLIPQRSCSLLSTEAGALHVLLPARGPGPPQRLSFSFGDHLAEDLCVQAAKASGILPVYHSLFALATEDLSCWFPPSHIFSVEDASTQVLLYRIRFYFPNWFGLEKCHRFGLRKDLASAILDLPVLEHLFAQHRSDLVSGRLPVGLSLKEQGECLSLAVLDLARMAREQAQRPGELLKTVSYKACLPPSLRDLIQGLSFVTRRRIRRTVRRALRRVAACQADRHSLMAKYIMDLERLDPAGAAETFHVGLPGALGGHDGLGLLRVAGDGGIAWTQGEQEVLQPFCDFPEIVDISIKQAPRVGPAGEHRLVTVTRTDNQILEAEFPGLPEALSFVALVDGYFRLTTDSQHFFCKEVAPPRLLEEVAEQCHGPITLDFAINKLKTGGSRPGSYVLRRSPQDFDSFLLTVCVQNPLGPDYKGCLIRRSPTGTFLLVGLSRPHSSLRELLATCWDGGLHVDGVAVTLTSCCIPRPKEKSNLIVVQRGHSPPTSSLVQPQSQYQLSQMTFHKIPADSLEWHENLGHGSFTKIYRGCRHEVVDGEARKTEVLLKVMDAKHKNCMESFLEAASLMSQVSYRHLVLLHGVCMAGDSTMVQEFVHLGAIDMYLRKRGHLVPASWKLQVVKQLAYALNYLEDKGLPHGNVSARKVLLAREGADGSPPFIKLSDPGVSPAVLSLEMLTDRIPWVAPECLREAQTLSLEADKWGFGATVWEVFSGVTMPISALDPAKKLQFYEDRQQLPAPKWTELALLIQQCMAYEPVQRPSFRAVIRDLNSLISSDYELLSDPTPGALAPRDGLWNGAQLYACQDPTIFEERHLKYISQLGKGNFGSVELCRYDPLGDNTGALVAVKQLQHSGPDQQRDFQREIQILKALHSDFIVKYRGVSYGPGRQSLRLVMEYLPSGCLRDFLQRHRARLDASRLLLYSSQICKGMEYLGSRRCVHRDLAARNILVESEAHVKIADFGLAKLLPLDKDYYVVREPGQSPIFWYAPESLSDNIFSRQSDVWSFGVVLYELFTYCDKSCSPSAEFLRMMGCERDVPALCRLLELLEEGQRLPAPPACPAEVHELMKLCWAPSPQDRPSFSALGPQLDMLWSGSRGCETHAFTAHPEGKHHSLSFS
- Assay Protocol: Inhibition of JAK3
Recall that pIC50 is obtained by taking minus log10 of the concentration measured in molar.

Known results for molecules:
O=c1[nH]ccc2c3[nH]c(-c4ccccc4Cl)nc3c3ccc(F)cc3c12 : 7.11
CCNc1ncc(C(N)=O)c2[nH]c3ccc(F)cc3c12 : 5.17

pIC50 for O=c1[nH]ccc2c1c1cc(F)ccc1n2-c1ccccc1 is 6.14
